pKi: −log10 of the molar value.
// each record: one item and its pKi for human vasopressin V1b receptor (Homo sapiens, UniProt P47901)

{"columns": ["MOLECULE", "ENDPOINT_NAME", "RECORDED_MEASUREMENT"],
 "data": [
  ["CNCc1cc2c(c(C3(N4CCC[C@H]4c4ncco4)C(=O)N(S(=O)(=O)c4ccc(OC)cc4)c4ccc(Cl)cc43)c1)OCO2 (stereo partly drawn)", "pKi", "7.00 to 8.00"]
]}

# input for lookup
The reported human vasopressin V1b receptor (Homo sapiens, UniProt P47901) pKi of COc1cc(CN2CCCC2)ccc1C1(N2C[C@H](O)C[C@H]2c2ncco2)C(=O)N(S(=O)(=O)c2ccc(C#N)cc2)c2ccc(Cl)cc21 (stereo partly drawn) is 7.00 to 8.00
